assay: Cytotoxicity, MTT assay; format: cell-based, human; conditions: human, HEK 293 cells
Where a SMILES comes first, the peptide text is derived from it. [ ]: non-standard residue; d: D form. The star is where a group is joined. Dab = NCC[C@H](N)C(=O)O; Hexanoyl = CCCCCC(=O)*
outcomeMeasure: viability at 24 h, 75 µg/mL

compound="CCCCCC(=O)N[C@@H](CCN)C(=O)N[C@H](C(=O)N[C@@H](CCN)C(=O)N[C@H](Cc1ccccc1)C(=O)N[C@@H](CC(C)C)C(=O)N[C@@H](CCN)C(=O)N[C@@H](C(=O)N[C@@H](CC(C)C)C(=O)N[C@@H](CO)C(N)=O)C(C)C)[C@@H](C)CC [Analogue 1] (Hexanoyl-[Dab]I[Dab][dF]L[Dab][dV]LS-NH2)" outcomemeasure="viability at 24 h, 75 µg/mL" testvalue=73.1%
